# System: NCI-H295
# ASSAY OVERVIEW: Cell Proliferation Assay ±NA, NCI-H295
# Format: cell-based
# EXPERIMENTAL CONDITIONS: NCI-H295, adrenal gland; NA 0.0 μM; treatment time 144 hr; read-out: IC50 (μM) NA (0.0 μM)
ASSAY METRIC: IC50 (µM)

1) CC(C)(O)CS(=O)(=O)Nc1ccc2c(c1)CCN(C(=O)COc1cccnc1)C2 | 0.1

----------
# Test system: ACHN
# ASSAY OVERVIEW: Cell Proliferation Assay ±NA, ACHN
# Type: cell-based
# EXPERIMENTAL CONDITIONS: Homo sapiens, kidney, NA 10 μM, treatment time 72 hr, read-out: IC50 (μM) NA (10 μM)
ASSAY METRIC: IC50

1) CC(C)(O)CS(=O)(=O)Nc1ccc2c(c1)CCN(C(=O)COc1cccnc1)C2 [Example 1] | > 2 µM
